experimental_system: rat SUR2A (Rattus norvegicus)
assay_notes: In vitro binding affinity to rodent KATP channels: SUR2A ([3H]P1075 / [3H]glibenclamide displacement, COS cell membranes)
pKi vs 5: at or above is Yes, below is No.

[[record]]
molecule = "CCc1c(C(=O)NN2CCCCC2)nc(-c2ccccc2Cl)n1-c1ccc(Cl)cc1 [reference compound]"
qualitative_label = "No"

[[record]]
molecule = "O=C(NN1CCCC1)c1nc(-c2ccc(Cl)cc2)n(-c2ccc(Cl)cc2Cl)n1"
qualitative_label = "No"

[[record]]
molecule = "CCc1c(C(=O)NC2CCCCC2)nc(-c2ncccc2C)n1-c1ccc(Cl)cc1"
qualitative_label = "Yes"

[[record]]
molecule = "Cc1c(NC(=O)N2CCCCC2)nn(-c2ccc(Cl)cc2Cl)c1-c1ccc(Cl)cc1"
qualitative_label = "No"


----------
Test system: rat perifused pancreatic islets
assay_notes: KATP opening effects through insulin secretion in rat perifused pancreatic islets
Format: cell-based
condition_info: 11 mM glucose, 30-60 minutes
experimental_endpoint: % Inhibition 30-60 (insulin secretion) (%)

[[record]]
compound = "Cc1c(C(=O)NN2CCCCC2)nn(-c2ccc(Cl)cc2Cl)c1-c1ccc(Cl)cc1 [Rimonabant, reference compound]"
experimental_system = "rat perifused pancreatic islets"
experimental_endpoint = "% Inhibition 30-60 (insulin secretion)"
observed_result = 18

[[record]]
compound = "CN/C(=N\\S(=O)(=O)N(C)C)N1CC(c2cccc(F)c2)C(c2ccc(Cl)cc2)=N1 (stereo not drawn)"
experimental_system = "rat perifused pancreatic islets"
experimental_endpoint = "% Inhibition 30-60 (insulin secretion)"
observed_result = 77

[[record]]
compound = "CCc1c(C(=O)NN2CCCCC2)nc(-c2ccccc2Cl)n1-c1ccc(Cl)cc1 [reference compound]"
experimental_system = "rat perifused pancreatic islets"
experimental_endpoint = "% Inhibition 30-60 (insulin secretion)"
observed_result = 45


----------
Tested on: rat perifused pancreatic islets
assay_notes: KATP opening effects through insulin secretion in rat perifused pancreatic islets
Assay type: cell-based
condition_info: 11 mM glucose, 30-60 minutes
We begin with a simple list: items and their reported % Inhibition 30-60 (insulin secretion).
experimental_endpoint: % Inhibition 30-60 (insulin secretion) (%)

[[record]]
molecule = "Cc1c(C(=O)c2cccc3ccccc23)c2cccc3c2n1[C@H](CN1CCOCC1)CO3 [R(+)-WIN55212-2, reference compound]"
experimental_endpoint = "% Inhibition 30-60 (insulin secretion)"
unit_abbrev = "%"
observed_result = 35

[[record]]
molecule = "CSc1c(C(=O)NN2CCCCC2)nc(-c2ccccc2Cl)n1-c1ccc(Cl)cc1"
experimental_endpoint = "% Inhibition 30-60 (insulin secretion)"
unit_abbrev = "%"
observed_result = 36

[[record]]
molecule = "CN(C)CCNC(=NS(=O)(=O)N1CCCCC1)N1CC(c2ccccc2)C(c2ccc(Cl)cc2)=N1 (stereo not shown)"
experimental_endpoint = "% Inhibition 30-60 (insulin secretion)"
unit_abbrev = "%"
observed_result = 64

[[record]]
molecule = "CCCCCCC(C)(C)c1ccc([C@@H]2C[C@H](O)CC[C@H]2CCCO)c(O)c1 (stereo in doubt) [CP55940, reference compound]"
experimental_endpoint = "% Inhibition 30-60 (insulin secretion)"
unit_abbrev = "%"
observed_result = 56


----------
We begin with a simple list: items and their reported Ki.
experimental_system: hamster SUR1 (Cricetus cricetus, UniProt Q09427)
Construct: expressed in transfected cells; host or cells: COS-1 cells, transient (pcDNA vector)
Sequence (Q09427 whole entry): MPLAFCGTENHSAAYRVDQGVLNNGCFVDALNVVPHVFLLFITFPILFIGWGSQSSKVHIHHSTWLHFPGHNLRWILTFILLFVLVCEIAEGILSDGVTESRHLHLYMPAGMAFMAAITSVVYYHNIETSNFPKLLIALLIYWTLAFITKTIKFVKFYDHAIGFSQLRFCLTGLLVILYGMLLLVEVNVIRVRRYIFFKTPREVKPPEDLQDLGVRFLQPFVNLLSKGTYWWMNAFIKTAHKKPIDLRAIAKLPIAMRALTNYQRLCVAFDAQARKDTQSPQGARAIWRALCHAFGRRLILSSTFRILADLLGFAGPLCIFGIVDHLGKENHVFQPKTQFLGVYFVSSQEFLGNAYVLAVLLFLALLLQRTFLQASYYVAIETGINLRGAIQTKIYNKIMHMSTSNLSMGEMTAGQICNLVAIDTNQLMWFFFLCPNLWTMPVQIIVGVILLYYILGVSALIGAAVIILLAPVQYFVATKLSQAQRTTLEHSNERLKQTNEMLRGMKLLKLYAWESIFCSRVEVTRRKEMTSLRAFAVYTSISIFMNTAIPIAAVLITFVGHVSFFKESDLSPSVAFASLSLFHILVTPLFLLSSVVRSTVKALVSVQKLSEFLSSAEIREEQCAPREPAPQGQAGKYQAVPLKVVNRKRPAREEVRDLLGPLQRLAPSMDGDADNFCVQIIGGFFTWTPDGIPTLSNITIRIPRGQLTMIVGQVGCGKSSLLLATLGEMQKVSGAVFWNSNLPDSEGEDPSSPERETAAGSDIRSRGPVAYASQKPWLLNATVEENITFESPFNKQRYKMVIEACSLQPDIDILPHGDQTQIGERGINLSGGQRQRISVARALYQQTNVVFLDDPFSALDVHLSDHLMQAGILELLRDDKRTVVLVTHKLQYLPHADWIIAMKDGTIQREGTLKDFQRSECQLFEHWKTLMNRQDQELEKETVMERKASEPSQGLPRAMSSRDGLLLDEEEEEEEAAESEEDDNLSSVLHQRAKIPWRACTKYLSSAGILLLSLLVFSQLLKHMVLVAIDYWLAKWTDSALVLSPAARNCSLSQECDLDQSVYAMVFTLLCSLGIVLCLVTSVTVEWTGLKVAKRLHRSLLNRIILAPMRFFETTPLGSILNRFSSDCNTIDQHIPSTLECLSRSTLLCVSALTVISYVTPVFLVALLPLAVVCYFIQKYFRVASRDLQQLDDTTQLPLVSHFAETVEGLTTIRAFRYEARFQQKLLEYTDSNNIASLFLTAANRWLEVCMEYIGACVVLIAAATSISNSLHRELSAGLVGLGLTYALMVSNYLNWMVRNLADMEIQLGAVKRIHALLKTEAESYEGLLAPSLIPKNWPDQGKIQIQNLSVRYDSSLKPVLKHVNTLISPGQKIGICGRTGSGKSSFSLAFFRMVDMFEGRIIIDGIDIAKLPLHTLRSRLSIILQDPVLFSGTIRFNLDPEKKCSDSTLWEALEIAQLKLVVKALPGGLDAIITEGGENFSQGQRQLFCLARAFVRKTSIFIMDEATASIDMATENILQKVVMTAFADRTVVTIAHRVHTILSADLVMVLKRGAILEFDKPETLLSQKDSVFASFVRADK
assay_notes: In vitro binding affinity to rodent KATP channels: SUR1 ([3H]glibenclamide displacement, COS cell membranes)
condition_info: hamster SUR1 in COS cell membranes; read-out: Affinity to SUR 1 (converted)
experimental_endpoint: Ki (µM)

[[record]]
molecule = "CCc1c(C(=O)NC2CCCCC2)nc(-c2ccc(C)n2C)n1-c1ccccc1"
observed_result = 100

[[record]]
molecule = "CN(C)CCNC(=NS(=O)(=O)N1CCCCC1)N1CC(c2ccccc2)C(c2ccc(Cl)cc2)=N1 (stereo not drawn)"
observed_result = 100

[[record]]
molecule = "N#Cc1cc(-c2ccc(Br)cc2)n(-c2ccc(Cl)cc2Cl)n1"
observed_result = 100

[[record]]
molecule = "CN(C)S(=O)(=O)N=C(NCCF)N1CC(c2ccccc2)C(c2ccc(Cl)cc2)=N1 (stereo not drawn)"
observed_result = 50.1

[[record]]
molecule = "CCN(CC)S(=O)(=O)N=C(SC)N1CC(c2ccccc2)C(c2ccc(Cl)cc2)=N1 (stereo not drawn)"
observed_result = 100

[[record]]
molecule = "O=S(=O)(N=C(NC1CCNCC1)N1CC(c2ccccc2)C(c2ccc(Cl)cc2)=N1)c1ccc(Cl)cc1 (stereo not drawn)"
observed_result = 31.6

[[record]]
molecule = "CSc1c(C(=O)NN2CCCCC2)nc(-c2ccc(Cl)cc2Cl)n1-c1ccc(Cl)cc1"
observed_result = 7.94

[[record]]
molecule = "CSc1c(C(=O)NN2CCCCC2)nc(-c2ccccc2Cl)n1-c1ccc(Cl)cc1"
observed_result = 0.00631

[[record]]
molecule = "O=C(NN1CCCCC1)c1nc(-c2ccc(Cl)cc2Cl)c(-c2ccc(Cl)cc2)s1"
observed_result = 2


----------
experimental_system: rat SUR2A (Rattus norvegicus, UniProt Q63563)
Sequence (Q63563 whole entry): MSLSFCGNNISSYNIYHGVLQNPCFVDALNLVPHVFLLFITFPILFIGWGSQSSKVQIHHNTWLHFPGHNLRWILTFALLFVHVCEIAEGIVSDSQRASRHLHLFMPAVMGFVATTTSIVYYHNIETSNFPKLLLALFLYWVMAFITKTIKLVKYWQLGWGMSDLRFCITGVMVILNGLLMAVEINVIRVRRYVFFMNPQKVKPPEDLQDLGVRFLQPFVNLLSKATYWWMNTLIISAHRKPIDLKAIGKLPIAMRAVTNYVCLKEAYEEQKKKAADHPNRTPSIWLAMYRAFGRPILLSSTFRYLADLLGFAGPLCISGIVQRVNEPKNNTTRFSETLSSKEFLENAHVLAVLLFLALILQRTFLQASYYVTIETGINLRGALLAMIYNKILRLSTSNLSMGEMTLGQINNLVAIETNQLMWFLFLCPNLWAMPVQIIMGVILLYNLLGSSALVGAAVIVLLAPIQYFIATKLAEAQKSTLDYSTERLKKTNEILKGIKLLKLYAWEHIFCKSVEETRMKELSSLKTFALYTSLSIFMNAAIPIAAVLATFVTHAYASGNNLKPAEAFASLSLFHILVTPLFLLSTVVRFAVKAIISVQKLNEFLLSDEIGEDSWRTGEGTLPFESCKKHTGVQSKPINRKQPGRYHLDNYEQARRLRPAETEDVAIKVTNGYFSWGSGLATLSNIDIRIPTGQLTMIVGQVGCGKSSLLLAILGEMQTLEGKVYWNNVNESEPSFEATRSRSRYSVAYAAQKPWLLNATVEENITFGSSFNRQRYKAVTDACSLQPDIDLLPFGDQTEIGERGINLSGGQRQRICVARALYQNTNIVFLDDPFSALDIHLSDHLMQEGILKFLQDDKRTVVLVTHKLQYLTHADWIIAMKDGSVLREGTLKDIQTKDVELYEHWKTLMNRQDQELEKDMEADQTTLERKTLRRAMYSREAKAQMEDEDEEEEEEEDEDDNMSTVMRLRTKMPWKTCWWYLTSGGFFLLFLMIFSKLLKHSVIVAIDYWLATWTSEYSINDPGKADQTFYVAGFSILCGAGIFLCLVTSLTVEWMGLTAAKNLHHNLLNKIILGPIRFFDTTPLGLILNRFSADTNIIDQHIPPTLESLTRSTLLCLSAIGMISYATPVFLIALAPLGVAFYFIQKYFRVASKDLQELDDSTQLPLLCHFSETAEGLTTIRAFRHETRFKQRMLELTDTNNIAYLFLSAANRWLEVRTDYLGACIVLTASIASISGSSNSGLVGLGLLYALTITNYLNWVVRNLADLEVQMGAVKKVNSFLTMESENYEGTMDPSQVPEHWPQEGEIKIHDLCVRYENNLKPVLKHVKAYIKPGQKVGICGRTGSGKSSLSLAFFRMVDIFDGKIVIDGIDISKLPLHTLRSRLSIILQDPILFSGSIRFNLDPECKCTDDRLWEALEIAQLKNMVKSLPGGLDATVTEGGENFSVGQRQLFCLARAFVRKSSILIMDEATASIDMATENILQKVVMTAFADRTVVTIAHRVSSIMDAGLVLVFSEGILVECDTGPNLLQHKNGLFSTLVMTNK
assay_notes: In vitro binding affinity to rodent KATP channels: SUR2A ([3H]P1075 / [3H]glibenclamide displacement, COS cell membranes)
pKi vs 5: at or above is Fulfilled, below is Not fulfilled.

[[record]]
compound = "N#CCCNC(=NS(=O)(=O)c1ccc(Cl)cc1)N1CC(c2ccccc2)C(c2ccc(Cl)cc2)=N1 (stereo not drawn)"
experimental_system = "rat SUR2A (Rattus norvegicus, UniProt Q63563)"
qualitative_label = "Fulfilled"

[[record]]
compound = "CNC(=NS(=O)(=O)N1CCCCC1)N1CC(c2cccc(F)c2)C(c2ccc(Cl)cc2)=N1 (stereo not drawn)"
experimental_system = "rat SUR2A (Rattus norvegicus, UniProt Q63563)"
qualitative_label = "Fulfilled"

[[record]]
compound = "NC(Cc1ccc(Cl)c(Cl)c1)C(=O)N1CC(c2ccccc2)C(c2ccc(Cl)cc2)=N1 (stereo not drawn)"
experimental_system = "rat SUR2A (Rattus norvegicus, UniProt Q63563)"
qualitative_label = "Not fulfilled"

[[record]]
compound = "NC(=O)C1CCN(C(=NS(=O)(=O)c2ccc(Cl)cc2)N2CC(c3ccccc3)C(c3ccc(Cl)cc3)=N2)CC1 (stereo not drawn)"
experimental_system = "rat SUR2A (Rattus norvegicus, UniProt Q63563)"
qualitative_label = "Fulfilled"

[[record]]
compound = "CNC(=NS(=O)(=O)c1ccc(C(F)(F)F)cc1)N1CC(c2ccccc2)C(c2ccc(Cl)cc2)=N1 (stereo not drawn)"
experimental_system = "rat SUR2A (Rattus norvegicus, UniProt Q63563)"
qualitative_label = "Not fulfilled"

[[record]]
compound = "CON(C)C(=NS(=O)(=O)c1ccc(Cl)cc1)N1CC(c2ccccc2)C(c2ccc(Cl)cc2)=N1 (stereo not drawn)"
experimental_system = "rat SUR2A (Rattus norvegicus, UniProt Q63563)"
qualitative_label = "Fulfilled"

[[record]]
compound = "CCc1c(C(=O)NN2CCCCC2)nc(-c2ncccc2C)n1-c1ccc(Cl)cc1"
experimental_system = "rat SUR2A (Rattus norvegicus, UniProt Q63563)"
qualitative_label = "Not fulfilled"


----------
experimental_system: UniProt:Q63563
assay_notes: In vitro binding affinity to rodent KATP channels: SUR2A ([3H]P1075 / [3H]glibenclamide displacement, COS cell membranes)
We begin with a simple list: items and their reported pKi.
experimental_endpoint: pKi

[[record]]
compound = "NC(=NS(=O)(=O)c1ccc(Cl)cc1)N1CC(c2ccccc2)C(c2ccc(Cl)cc2)=N1 (stereo not drawn)"
observed_result = 5.1

[[record]]
compound = "Cc1c(C(=O)NN2CCCCC2)nc(-c2ccc(Cl)cc2Cl)n1-c1ccccn1"
observed_result = 4.1

[[record]]
compound = "O=C(NN1CCCCC1)c1nc(-c2ccc(Cl)cc2Cl)n(-c2ccc(Br)cc2)c1Cl"
observed_result = 5.5

[[record]]
compound = "O=C(NN1CCCCC1)c1nc(-c2ccc(Cl)cc2Cl)n(-c2ccc(Cl)cc2)c1CF"
observed_result = 5.5

[[record]]
compound = "CSc1c(C(=O)NN2CCCCC2)nc(-c2ccc(Cl)cc2Cl)n1-c1ccc(Cl)cc1"
observed_result = 5.6

[[record]]
compound = "CC(C)(CO)CN/C(=N\\S(=O)(=O)c1ccc(Cl)cc1)N1CC(c2ccccc2)C(c2ccc(Cl)cc2)=N1 (stereo not drawn)"
observed_result = 5.4

[[record]]
compound = "O=C(NN1CCCCC1)c1cn(-c2ccc(C(F)(F)F)cc2)c(-c2ccc(Cl)cc2Cl)n1"
observed_result = 5.3

[[record]]
compound = "CCN(CC)S(=O)(=O)N=C(NC)N1CC(O)(c2ccccc2)C(c2ccc(Cl)cc2)=N1 (stereo not drawn)"
observed_result = 5.9

[[record]]
compound = "O=C(NN1CCCCC1)c1nc(-c2ccc(Cl)cc2Cl)n(-c2ccc(Cl)cc2)n1"
observed_result = 5.0

